Ref: patent US20080026996A1

# SYSTEM_TESTED: human VPAC1 (Homo sapiens, UniProt P32241)
# Sequence (P32241 31-457): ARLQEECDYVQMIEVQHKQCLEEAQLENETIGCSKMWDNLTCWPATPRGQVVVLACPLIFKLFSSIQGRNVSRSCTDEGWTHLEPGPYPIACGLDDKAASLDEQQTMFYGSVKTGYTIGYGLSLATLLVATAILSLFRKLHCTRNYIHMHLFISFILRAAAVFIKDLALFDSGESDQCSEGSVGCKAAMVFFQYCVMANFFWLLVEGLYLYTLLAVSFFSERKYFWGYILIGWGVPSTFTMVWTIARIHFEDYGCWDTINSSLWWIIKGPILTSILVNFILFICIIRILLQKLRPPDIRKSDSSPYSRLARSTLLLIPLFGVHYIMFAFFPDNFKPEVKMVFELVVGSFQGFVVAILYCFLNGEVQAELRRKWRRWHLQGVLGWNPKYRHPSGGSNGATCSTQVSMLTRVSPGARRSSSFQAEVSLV
# PROTOCOL: Filter binding assay, membranes of cells transiently transfected with human VPAC1, 125I-labeled VIP tracer (Table 2)
# Set-up: expressed in transfected cells
# PROTOCOL_CONDITIONS: read-out: Human VPAC1 Receptor Binding
Where no end group is shown, it is not given here. [ ]: non-standard residue; d: D form. The star is where a group is joined. Hexanoyl = CCCCCC(=O)*; Aib = CC(C)(N)C(=O)O
MEASURE_NAME: pIC50
Quick note: pIC50 values are minus log10 of concentrations in mol/L.

Illustrative cases are given below, each with its answer.
Hexanoyl-HSDAVFTDNYTRLRKQVAAAKYLQSIKNKRYGGPSSGAPPPS [Agonist P181] ... 6.49
Hexanoyl-HSDAVFTDNYTRLRKQVAAKKLLQSIKNKRYGGPSSGAPPPS [Agonist P132] ... 6.21
Hexanoyl-HHSDAVFTDNYTRLLAKLALQKYLQSIKNKRYGGPSSGAPPPS [Agonist P191] ... 5.89
Hexanoyl-HSDAVFTDNYTRLQKQVAAKKYLQSIKNKRYGGPSSGAPPPS [Agonist P172] ... 6.39
Hexanoyl-HSDAVFTDNYTRLRKQVAAKLYLQSIKNKRYGGPSSGAPPPS [Agonist P185] ... 6.45
Hexanoyl-HSDAVFTDNYTRLQKQVAAQKYLQSIKNKRYGGPSSGAPPPS [Agonist P252] ... 5.93
Hexanoyl-HSDAVFTDNYTRLRKQVAAKKY[Aib]QSIKNKRYGGPSSGAPPPS [Agonist P236] ... 6.23

Here is the next item to consider.
In: Which pIC50 value belongs to HSDAVFTDNYTRLRKQVAAKKYLQSIRNKRYGGPSSGAPPPS [Agonist P23] ?
Out: 6.82
